assay: Comparative solubility in aqueous buffers (HPLC); format: physicochemical; conditions: 50 mM acetate buffer, pH 4.5, aqueous buffer, thermodynamic from solid, 50 mM Acetate, 1 hr
quantity.kind: solubility at 1 h

Identify measured solubility at 1 h corresponding to CC(C)(C=C(C#N)C(=O)N1CCCC(n2nc(-c3ccc(Oc4ccccc4)cc3F)c3c(N)ncnc32)C1)N1CCN(C2COC2)CC1 (stereo not shown) [Compound (I) Form B]
1700 µg/mL

###

assay: Visual solubility of Form B crystal in common solvents at RT; assay type: physicochemical; details: organic solvent or mixture, thermodynamic from solid; t-Butyl Methyl Ether (MTBE); visually estimated
quantity.kind: solubility at 15 min

Identify measured solubility at 15 min corresponding to CC(C)(C=C(C#N)C(=O)N1CCCC(n2nc(-c3ccc(Oc4ccccc4)cc3F)c3c(N)ncnc32)C1)N1CCN(C2COC2)CC1 (stereo not shown) [Compound (I) Form B]
< 20 mg/mL

###

assay: Visual solubility of Form B crystal in common solvents at RT; format: physicochemical; settings: organic solvent or mixture, thermodynamic from solid; Dimethyl carbonate (DMC); visually estimated
quantity.kind: solubility at 15 min

Identify measured solubility at 15 min corresponding to CC(C)(C=C(C#N)C(=O)N1CCCC(n2nc(-c3ccc(Oc4ccccc4)cc3F)c3c(N)ncnc32)C1)N1CCN(C2COC2)CC1 (stereo not shown) [Compound (I) Form B]
20 to 100 mg/mL

###

assay: Solubility of methyl paraben co-crystal in pH 4.5 and 6.8 buffer (HPLC); format: physicochemical; conditions: pH 4.5 buffer, 25 °C, pH 4.5, aqueous buffer, thermodynamic from solid, 3 hour, single sample
quantity.kind: solubility at 3 h (µg/mL)
Give your result in µg/mL as a bare value.

Identify measured solubility at 3 h corresponding to CC(C)(C=C(C#N)C(=O)N1CCCC(n2nc(-c3ccc(Oc4ccccc4)cc3F)c3c(N)ncnc32)C1)N1CCN(C2COC2)CC1 (stereo not shown)
980

###

experiment: Visual solubility of Form B crystal in common solvents at RT; type: physicochemical; conditions: organic solvent or mixture, thermodynamic from solid; Isopropyl ether (IPE); visually estimated
quantity.kind: solubility at 15 min

Identify measured solubility at 15 min corresponding to CC(C)(C=C(C#N)C(=O)N1CCCC(n2nc(-c3ccc(Oc4ccccc4)cc3F)c3c(N)ncnc32)C1)N1CCN(C2COC2)CC1 (stereo not shown) [Compound (I) Form B]
< 20 mg/mL

###

assay: Visual solubility of Form B crystal in common solvents at RT; type: physicochemical; conditions: organic solvent or mixture, thermodynamic from solid; Ethyl acetate (EtOAc); visually estimated
quantity.kind: solubility at 15 min

Identify measured solubility at 15 min corresponding to CC(C)(C=C(C#N)C(=O)N1CCCC(n2nc(-c3ccc(Oc4ccccc4)cc3F)c3c(N)ncnc32)C1)N1CCN(C2COC2)CC1 (stereo not shown) [Compound (I) Form B]
20 to 100 mg/mL

###

assay: Visual solubility of Form B crystal in common solvents at RT; assay type: physicochemical; conditions: organic solvent or mixture, thermodynamic from solid; Tetrahydrofuran (THF); visually estimated
quantity.kind: solubility at 15 min

Identify measured solubility at 15 min corresponding to CC(C)(C=C(C#N)C(=O)N1CCCC(n2nc(-c3ccc(Oc4ccccc4)cc3F)c3c(N)ncnc32)C1)N1CCN(C2COC2)CC1 (stereo not shown) [Compound (I) Form B]
> 100 mg/mL
